Where these numbers come from: PubChem BioAssay (NCI)

# assay info: NCI Yeast Anticancer Drug Screen. Data for the rad14 strain (AID 159);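 also: 0% = growth of vehicle-treated control cultures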
# condition summary: S. cerevisiae rad14 strain growth inhibition; at 100.0 µM
This is part of a sample that, as a whole, favours compounds with a hit. Of some 79,000 tested, about 15% had one in any assay. Active and inactive are the calls of the source. Rule as the data show it: active = growth inhibition above about 70%; inactive = the rest.
Classes used: 1 (yes) = active, 0 (no) = inactive

>>> label_value("O=C1C=CC(=C(c2ccccc2)c2ccccc2)c2ccccc21")
"0 (no)"
>>> label_value("CCN(CC)[P+](c1ccccc1O)(N(CC)CC)N(CC)CC")
"1 (yes)"
>>> label_value("CO[C@H]1C[C@](C)(O)Cc2cc3c(c(O)c21)C(=O)c1c(O)cc2c(c1C3=O)O[C@@H]1O[C@@]2(C)[C@H](O)[C@@H](N(C)C)[C@@H]1O")
"0 (no)"
>>> label_value("CC(Br)C(=O)c1ccc2cc(Br)c3ccccc3c2c1 (stereo not given)")
"0 (no)"
>>> label_value("Cc1ccc(NC(=O)/C(Cl)=C(\\Cl)C(=O)O)cc1C")
"1 (yes)"
